- System: MS2 coat protein
- ASSAY_PROTOCOL: apparent KD of MS2 coat protein; higher = weaker reporter binding
- PROTOCOL_CONDITIONS: Eterna round: R107; input ligand: tryptophan 2.4 mM
ATTRIBUTE_MEASURED: apparent KD of MS2 coat protein (nM)
Give bare numbers, in nM.

Observe how each entry below is paired with its result.
SEQUENCE_CONTENT	U	apparent KD of MS2 coat protein
ACAUGAGGAUCACCCAUGUAUGACUAUCCUCGAGGACCGGUACGGCCGCCACUCGAACGAGUGGCUCGCGAGUGCGCACUCGCGA [5' end]	nM	10.3
AGCGCUAUGCAUGAUACCAGCUACAUGAGGAUCACCCAUGUGCGUCAGAAAUGACUGUGUAGCCCUUGGCAGCAUAAAGCAUGUA [Exclusion - Theophylline B (Freestyle 9)]	nM	17.2
UAGCGAUCUCGUUAAAGGAUCCCAUUUGAUACCAGAGAACUUUGCCUCCCUUGGCAGCAAGUGACAUGAGGAUCACCCAUGUUGA [theeternabot_exclusion_MS2_Theo_A_3]	nM	16.4

Return reported apparent KD of MS2 coat protein values for all items listed beneath this line.
1. UGUAUGGACUGAAGGAGCGGUAGAUAACCUGAGGAUCACCCGGGUAAUAAAGGCGAAAGCCACCAGGUAGGUCGCAGUCCAUACU
2. UUUAAAAUCAGAAGGAGCGUGAUAAACAUGAGGAUCACCCAUGUCGAAAAUUUAAUAUAAUCACAGGUAGGUCGCUGUAAUAUUU [Same State - Ariginine B]
3. GGUGGGAGCAACGAUACCAGCUACAUGAGGAUCACCCAUGUGGAAUGGGAGUCAACAGCGAGCCCUUGGCAGCGUUAGACCCAAA [Bebeeserdi]

Result:
[262, 14.2, 11.6]

* * *

Exercise: for every item that follows, state its recorded apparent KD of K4 kissing-loop reporter.
- System: K4 kissing-loop RNA reporter;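 also: bound reporter read as fluorescence of individual clusters on recovered sequencing chips by microscopy, with normalized cluster intensities fitted with a binding model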
- ASSAY_PROTOCOL: apparent KD of K4 kissing-loop reporter; higher = weaker reporter binding
- PROTOCOL_CONDITIONS: Eterna round: R107; input ligand: theophylline 20 uM

SEQUENCE_CONTENT	MEASURED_ON	apparent KD of K4 kissing-loop reporter
CUUGGAAAGACGGCCGCCACUGGCCAGUGAUGUUGGCCCACCAGGUAAGCCAAGAAGCUUGACGUCAGGACCGGGUCCUAGGAAU [Exclusion TRyptophan B GF 23]	K4 kissing-loop RNA reporter	0.314 µM

Return reported apparent KD of K4 kissing-loop reporter values for all items listed beneath this line.
1. UGAUAGGACAGAAGGAGCGGAAGUGAUGUUUCCAAAAGAUAUGGUCGACAAAGUCGACUUUUCCAGGUAGGUCGCUGUCCUAUCU [KL-XARG-B18]
2. UGUGGAGGAUAUGAUACCAGCAGUGAGAGAGAGGAAGUAUAGUGAUGUUAUAUGAGAGAAUGCCCUUGGCAGCGUGUGUAGUAGG [SSTheophylB.J]
3. UAUGGCGAGGGCCGCAUAUCAUUAAACCAGAAGGAUAUAUGUUACUAUAGAAGGUCUGCCGCUGCGAGUGAUGUUUGGAGUGAUC [theeternabot_sameState_KL_FMN_A_3]
4. UGGAGGAGUGAUGUUCCCGAAACAUGAGAUACCAGCGUCACAGUCCGCCCUUGGCAGCUCGGUCCAAUUUGCCUCGCGGGUAAUG [theeternabot_sameState_KL_Theo_A_23]
5. AUAACAAUCUGAAGGAGCGAGAAAGCAGUGAUGUUGCAAAGGCGAGUGAUGUUCGCAAUAACUCAGGUAGGUCGCAGAAACAAGA [Same State Arginine B]

Result:
1: 0.0841 µM; 2: 0.153 µM; 3: 0.242 µM; 4: 0.257 µM; 5: 0.193 µM

Return reported apparent KD of K4 kissing-loop reporter values for all items listed beneath this line.
1. AAACAUCACUGGGAGUGAUGUUCUCAGUGACGAGGACCGGUACGGCCGCCACUCGCGAGAGAUAUAGUUAAGUAAUGACUGCAUU [Excl Tryptophan A V7]
2. CUUAAGAUAUGAGUGAUGUUUAUGUCCGAAGGAGCGUGCGAAAGUACAGGUAGGUCGCGGAUGUGAGUGAUGUUCAUGUAAGCGA [KL-XArg-A13 #analogue]
3. CAUUCAGUGAUGUUGGAAGGCGAGCGGGAUACCAGCGGAGACUCACGCCCUUGGCAGCCCAUAUAUCCCAGGUAGAUAAUAGUUC [Same State - Theophylline A (Freestyle 5)]
4. CUUGGGCUUGCGGCCGCCACUCAAACAUCAUUAAGGAUGGUCCACGGGCAAGUGAUGUUUAUCCGGAGGACCGGGCAUAGCGACA [theeternabot_exclusion_KL_Trp_B_23]
5. CAUAGACAAGUGAUGUUUGUCAUAACCGAAGGAGCGUCUUUAAAGACAGGUAGGUCGCGGAUUAAUUAAGUUAUGAUUCUUUUUA [JR_SSArginiA_Sub017]
6. ACGAAGGAUGGAAGGAGCGCUCGUCAGUCCUGCGAGUGAUGUUCGUGGGUAAAUAUUCGCGAGCAGGUAGGUCGCCAUCUUGAGC [Soregeor]
7. UGAUACCAGACGGCCGCCACUAGGACCGGGAGUGAUGUUCCCAAUUUAAAAUGCUCGGCCGCCACUAGGACCGGGUCUGGUAUCU [TrypBX 27 #DoubleAptamer #SwitchBubble]

Result:
0.333 µM
0.109 µM
0.219 µM
0.315 µM
0.642 µM
0.134 µM
0.305 µM

* * *

- Test system: MS2 coat protein
- ASSAY_PROTOCOL: apparent KD of MS2 coat protein; designed switch direction (-1 OFF switch, 1 ON switch): -1; higher = weaker reporter binding
- PROTOCOL_CONDITIONS: input ligand: microRNA oligo, concentration not stated
Exercise: for every item that follows, state its recorded apparent KD of MS2 coat protein.
Numbers only, in nM.

Observe how each entry below is paired with its result.
SEQUENCE_CONTENT	MEASURED_ON	ATTRIBUTE_MEASURED	VALUE_MEASURED
UAUAUAUAGUAAGGAUAUGUAUUUAUUUUAUAAACAGAAGGUACUGACAUGAGGAUCACCCAUGUUUUAGUGUGGGCAUGUAGA [JMF's solution 4] (Eterna round: R96, puzzle: Exclusion NG 1)	MS2 coat protein	apparent KD of MS2 coat protein	67
CCAUAUAACUGAGGAUAUAAUCACCACUAACAUUUAGAAGGCAGACAUGAGGAUCACCCAUGUGAUUUCUCAAUAUUAUACAUC [Prohibition 77 - Jieux - Exclusion NG 1] (Eterna round: R96, puzzle: Exclusion NG 1)	MS2 coat protein	apparent KD of MS2 coat protein	544
AUAAAUCAUGUAGGAUAUGCGUGGCAAAGCUAUGCAGAAGGACAUGAGGAUCACCCAUGUUCUUCCGUCUGCGUACAGACGGAA [Mat - Exclusion NG 1 - Mod of JL - D40] (Eterna round: R96, puzzle: Exclusion NG 1)	MS2 coat protein	apparent KD of MS2 coat protein	31.4

Now let's try a different one.
Request: Reported apparent KD of MS2 coat protein for AUAAUAAAACAUGAGGAUCACCCAUGUGGGUCGUUCUACUGGCAGGAUAUCGCCAGACAAUAAAACGAGAAGGGCCAGUUAAUA [Leanerrean] (Eterna round: R96, puzzle: Exclusion NG 3) : what is it?
Result: 92.6

* * *

Exercise: for every item that follows, state its recorded apparent KD of MS2 coat protein.
- Tested on: MS2 coat protein
- ASSAY_PROTOCOL: apparent KD of MS2 coat protein; higher = weaker reporter binding
- PROTOCOL_CONDITIONS: Eterna round: R107; input ligand: arginine 13.2 mM
One number for each entry, in µM.

Observe how each entry below is paired with its result.
SEQUENCE_CONTENT	MEASURED_ON	U	apparent KD of MS2 coat protein
AAGUGGCACGGAAGGAGCGAGUUUACCUAGAUAACAUGAGGAUCACCCAUGUAUAAUGGGACUCAGGUAGGUCGCCGCUGUCACU [#30 Same State - Arginine B]	MS2 coat protein	µM	0.0349
CCCACAAGCACGGCCGCCACUAUAUUAAUUACUGUCCUAGAACAUGAGGAUCACCCAUGUUAAUGUAGGACCGGGUGCGGGCCCG [theeternabot_exclusion_MS2_Trp_B_7]	MS2 coat protein	µM	0.00921
UGUAUGGACUGAAGGAGCGGGUUGAUAUCAUGAGGAUCACCCAUGGAAAAGGCGAAAGCCGCCCAGGUAGGUCGCAGUCCAUACU	MS2 coat protein	µM	0.0251
UUAAUGGAGCUUUAAUUUACGAUUUCUGAUACCAGUGUUUCAUUUCACCCUUGGCAGCAGUGACAUGAGGAUCACCCAUGUAAUA [JR_Nu_SSTheophyA_Sub022]	MS2 coat protein	µM	0.0237
UAUUUGGUGCGCGAGUGUUGGAUAAUUGAUACCAGUGAAGAAGAGCGCCCUUGGCAGCGAAUCCUAACAUGAGGAUCACCCAUGU [5.T]	MS2 coat protein	µM	0.0359

Now let's try a different one.
Request: Please tell me: apparent KD of MS2 coat protein of UCGUGUGUUUCGGAUACCAGUGAAAUCGAUACAUGAGGAUCACCCAUGUGAGAGGAUGUACACCCUUGGCAGCUGGCUGUAGCGG [yyzmullin] , system MS2 coat protein?
Result: 0.0321
